All figures here come from patent US20250136595A1.

GI50 overview
target: Ba/F3 ERBB2 YVMA (Homo sapiens, UniProt P04626, DUP772-775, cells depend on it); assay: Cell viability assay (CellTiter Glo) in Ba/F3 cells engineered to express ERBB2 YVMA; assay type: cell-based, mouse; settings: Ba/F3 cells expressing human ERBB2 YVMA mutant, 72 hours, % viability, read-out: Ba/F3 ERBB2 YVMA IC50
Sequence (P04626 with tags, fused parts or gaps DUP772-775): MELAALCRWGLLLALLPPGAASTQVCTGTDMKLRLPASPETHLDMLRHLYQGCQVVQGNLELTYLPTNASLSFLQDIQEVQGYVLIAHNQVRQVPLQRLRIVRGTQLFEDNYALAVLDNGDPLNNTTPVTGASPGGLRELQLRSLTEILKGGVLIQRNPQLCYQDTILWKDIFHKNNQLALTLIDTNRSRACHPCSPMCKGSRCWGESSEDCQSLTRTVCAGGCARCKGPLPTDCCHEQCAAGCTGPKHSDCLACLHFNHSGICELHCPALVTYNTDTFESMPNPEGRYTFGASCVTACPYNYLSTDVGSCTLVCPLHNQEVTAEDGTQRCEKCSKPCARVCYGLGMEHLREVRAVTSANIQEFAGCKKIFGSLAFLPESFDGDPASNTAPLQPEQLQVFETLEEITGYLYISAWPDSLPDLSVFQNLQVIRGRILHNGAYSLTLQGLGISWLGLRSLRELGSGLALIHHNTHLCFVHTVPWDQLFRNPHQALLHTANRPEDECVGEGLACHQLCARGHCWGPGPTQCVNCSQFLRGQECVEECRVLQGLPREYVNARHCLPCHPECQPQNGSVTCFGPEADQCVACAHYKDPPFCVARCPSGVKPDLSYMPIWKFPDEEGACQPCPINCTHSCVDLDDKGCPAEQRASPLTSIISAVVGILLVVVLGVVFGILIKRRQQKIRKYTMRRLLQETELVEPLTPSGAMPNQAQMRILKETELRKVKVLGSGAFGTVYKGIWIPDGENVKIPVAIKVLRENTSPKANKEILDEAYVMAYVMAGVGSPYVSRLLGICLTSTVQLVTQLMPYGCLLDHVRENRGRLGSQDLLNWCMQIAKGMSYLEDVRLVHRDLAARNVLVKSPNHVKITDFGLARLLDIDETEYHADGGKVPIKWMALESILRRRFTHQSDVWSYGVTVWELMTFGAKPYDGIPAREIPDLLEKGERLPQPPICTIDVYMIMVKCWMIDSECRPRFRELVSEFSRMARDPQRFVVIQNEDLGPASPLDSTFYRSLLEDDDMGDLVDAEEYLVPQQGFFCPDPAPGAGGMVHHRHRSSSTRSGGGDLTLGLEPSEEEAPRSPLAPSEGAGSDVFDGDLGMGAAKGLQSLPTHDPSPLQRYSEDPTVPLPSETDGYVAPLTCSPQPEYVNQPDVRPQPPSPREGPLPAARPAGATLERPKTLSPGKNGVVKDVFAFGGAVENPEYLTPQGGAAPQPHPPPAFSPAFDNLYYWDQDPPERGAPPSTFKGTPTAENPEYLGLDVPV
Your answer is read as nM, so omit the unit and give the number.

Past entries and their recorded results:
• C=CC(=O)N1CCN(c2ncc3ncnc(Nc4ccc(Cc5ccn6ncnc6c5)c(C)c4)c3n2)[C@@H](C)C1 [Compound 113] = 8.87
• CC#CC(=O)N1CCN(c2ccc3ncnc(Nc4ccc(Oc5ccn6ncnc6c5)c(C)c4)c3n2)[C@@H](C)C1 [Compound 25] = 23.4

Field: next molecule
Inquiry: Returns the measured GI50 for the input molecule. Input: C=CC(=O)N1CCN(c2ccc3ncnc(Nc4ccc(Oc5ccn6ncnc6c5)c(C)c4)c3n2)CC1(C)C [Compound 108]
Reply text: 10.9

====

biological target: phosphorylated ERBB2 (pERBB2) (Homo sapiens, UniProt P04626); construct: endogenous in cells; assay: Detection of phosphorylated ERBB2 (pERBB2) by ELISA in BT-474 cells; conditions: four hour incubation with compound
Sequence (P04626 23-1255): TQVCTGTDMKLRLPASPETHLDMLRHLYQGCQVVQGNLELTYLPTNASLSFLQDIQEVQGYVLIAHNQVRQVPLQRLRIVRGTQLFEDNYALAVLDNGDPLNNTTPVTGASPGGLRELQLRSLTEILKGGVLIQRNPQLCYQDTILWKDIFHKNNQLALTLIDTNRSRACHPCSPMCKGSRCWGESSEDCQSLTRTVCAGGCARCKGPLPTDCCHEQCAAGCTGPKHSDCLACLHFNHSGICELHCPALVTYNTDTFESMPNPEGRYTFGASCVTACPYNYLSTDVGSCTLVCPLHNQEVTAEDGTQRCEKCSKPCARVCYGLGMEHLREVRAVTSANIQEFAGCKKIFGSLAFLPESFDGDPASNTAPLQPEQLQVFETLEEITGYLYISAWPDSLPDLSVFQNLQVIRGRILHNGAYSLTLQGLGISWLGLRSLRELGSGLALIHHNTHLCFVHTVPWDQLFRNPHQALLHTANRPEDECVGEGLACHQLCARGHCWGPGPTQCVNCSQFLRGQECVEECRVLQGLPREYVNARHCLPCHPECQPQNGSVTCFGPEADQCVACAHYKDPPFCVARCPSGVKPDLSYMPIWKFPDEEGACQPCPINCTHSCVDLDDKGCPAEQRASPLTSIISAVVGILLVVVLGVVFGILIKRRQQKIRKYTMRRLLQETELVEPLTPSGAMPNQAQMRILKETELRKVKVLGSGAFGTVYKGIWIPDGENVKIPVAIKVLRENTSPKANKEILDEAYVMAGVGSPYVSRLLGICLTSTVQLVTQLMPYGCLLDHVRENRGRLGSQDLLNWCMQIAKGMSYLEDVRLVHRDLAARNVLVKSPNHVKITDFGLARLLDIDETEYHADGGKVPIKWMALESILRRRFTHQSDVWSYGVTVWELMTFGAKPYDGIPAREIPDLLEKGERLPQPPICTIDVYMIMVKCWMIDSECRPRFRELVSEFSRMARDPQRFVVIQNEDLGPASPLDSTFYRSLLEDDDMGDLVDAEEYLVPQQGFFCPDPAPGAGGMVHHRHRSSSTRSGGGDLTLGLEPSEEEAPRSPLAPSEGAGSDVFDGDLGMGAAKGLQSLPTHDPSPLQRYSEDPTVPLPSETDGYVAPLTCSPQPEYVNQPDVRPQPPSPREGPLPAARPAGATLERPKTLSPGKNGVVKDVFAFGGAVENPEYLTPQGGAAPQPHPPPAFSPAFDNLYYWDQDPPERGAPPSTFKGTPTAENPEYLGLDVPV
Documented IC50 across a set of molecules
Number only, in nM; omit the unit.

Below are worked cases with known answers.
* C=CC(=O)N1CCN(c2ccc3ncnc(Nc4ccc(Cc5ccn6ncnc6c5)c(C)c4)c3c2)CC1 [Compound 81] | 11
* C=CC(=O)N1CCN(c2ccc3ncnc(Nc4ccc(Oc5ccn6ncnc6c5)c(C)c4)c3c2)C[C@H]1C [Compound 35] | 13.6
* C=CC(=O)N1CCC2(CC1)CN(c1ccc3ncnc(Nc4ccc(Oc5ccn6ncnc6c5)c(C)c4)c3n1)C2 [Compound 19] | 98
* C=CC(=O)N1CCN(c2ccc3ncnc(Nc4ccc(Oc5ccn6ncnc6c5)c(C)c4)c3c2)CC1 [Compound 7] | 13
* C=CC(=O)N1CCN(c2ccc3ncnc(Nc4ccc(Cc5ccn6ncnc6c5)c(C)c4)c3n2)C[C@H]1C [Compound 51] | 20.9
* C=CC(=O)N1CCN(c2ccc3ncnc(Nc4ccc(CN5CCn6ncnc6C5)c(C)c4)c3n2)CC1 [Compound 34] | 68.9

Inquiry: Look up IC50 for this molecule: Cc1cc(Nc2ncnc3ccc(N4CCN(C(=O)/C=C/CN(C)C)[C@H](C)C4)nc23)ccc1Cc1ccn2ncnc2c1 [Compound 117]
Reply text: 24.5

Inquiry: What measured IC50 goes with C=CC(=O)N1CCCC2(C1)CN(c1ccc3ncnc(Nc4ccc(Oc5ccn6ncnc6c5)c(C)c4)c3n1)C2 [Compound 46] ?
Reply text: 45.3

Inquiry: Can you look up the measured IC50 of CC#CC(=O)N1CC[C@H](Oc2ccc3ncnc(Nc4ccc(Oc5ccc6c(c5)ncn6C)c(C)c4)c3n2)C1 [Compound 50] for me?
Reply text: 480

Inquiry: GET /values?readout=IC50&item= C=CC(=O)N1[C@H](C)CN(c2ccc3ncnc(Nc4ccc(Oc5ccn6ncnc6c5)c(C)c4)c3n2)C[C@@H]1C [Compound 60]
Reply text: 23.7

Inquiry: Return reported IC50; argument: Cc1cc(Nc2ncnc3ccc(N4CCN(C(=O)/C=C/CN(C)C)C[C@@H]4C)nc23)ccc1Cc1ccn2ncnc2c1 [Compound 105]
Reply text: 43.9

Inquiry: Recorded IC50 of C=CC(=O)N1CCN(c2ccc3ncnc(Nc4ccc(Oc5ccn6ncnc6c5)c(C)c4)c3n2)CC12CC2 [Compound 118] , please.
Reply text: 11.5

Inquiry: Requested field: IC50. Item: C=CC(=O)N1CC[C@H](Oc2ccc3ncnc(Nc4ccc(Oc5ccn6ncnc6c5)c(C)c4)c3c2)C1 [Compound 1]
Reply text: 5.68

Inquiry: Can you share its IC50? I mean this molecule: C=CC(=O)N1CCN(c2ccc3ncnc(Nc4ccc(Cc5ccc6c(c5)ncn6C)c(C)c4)c3n2)C[C@H]1C [Compound 53]
Reply text: 35.4

Inquiry: Entry under review: C=CC(=O)N1C2CCC1CN(c1ccc3ncnc(Nc4ccc(Oc5ccn6ncnc6c5)c(C)c4)c3n1)C2 [Compound 18] . Reported IC50?
Reply text: 13.4
